// provenance: patent US11214803B2

Exercise: state measured Yap1 mRNA, % UTC for each of the substances provided.
System: Yap1 mRNA
Test: Dose-dependent inhibition of human Yap1 in A-431 cells (Example 8, 10,000 cells per well, RTS4814)
Assay type: cell-based
Conditions: 500.0 nM; A-431 cells, 10,000 cells per well, free uptake, approximately 48 hours, RTS4814
Description: Modified oligonucleotides described in the studies above were tested at various doses in A-431 cells. […] After approximately 48 hours, Yap1 mRNA levels were measured as previously described using the Human Yap1 primer-probe set RTS4814. Yap1 mRNA levels were normalized to total RNA content, as measured by RIBOGREEN®. […] IC50s were calculated using a linear regression on a log/linear plot of the data in excel.
Strand notation (5' to 3'): a small letter for the sugar, then the base; units joined by * are phosphorothioate-linked, units joined directly phosphodiester-linked; [ ] holds rarer units or linkages, { } end groups; capitals alone tell only the bases. k = constrained ethyl (cEt); [5mC] = 5-methylcytosine; d = 2'-deoxy (DNA)
Supply the numeric figure in % UTC, leaving out any unit text.

Form field Yap1 mRNA, % UTC, entry 1076049 (kA*kG*kA*dT*dT*dA*dA*dA*dG*dG*d[5mC]*dT*dG*kG*kA*kA; antisense) [compound 1076049] : 13

Form field Yap1 mRNA, % UTC, entry 1076556 (kG*kT*kA*dT*dA*dG*dG*d[5mC]*dA*dG*dA*dA*dG*k[5mC]*kA*kA; antisense) [compound 1076556] : 19

Form field Yap1 mRNA, % UTC, entry 1074566 (DNA CACTGAATTCCAATCG; 3-10-3 cEt gapmer, chemistry not fully specified) [compound 1074566] : 5

Form field Yap1 mRNA, % UTC, entry 1074606 (DNA kG*kG*kT*dA*dT*dA*dA*dT*d[5mC]*dA*dT*dG*dA*kT*kT*kA) [compound 1074606] : 6

Form field Yap1 mRNA, % UTC, entry 1076323 (k[5mC]*kA*kA*dT*dT*dT*dA*d[5mC]*dA*dA*dG*dT*dG*kA*kG*k[5mC]; antisense) [compound 1076323] : 13

Form field Yap1 mRNA, % UTC, entry 1076294 (kT*kA*kT*dA*dT*dT*dA*dG*dT*dG*d[5mC]*d[5mC]*d[5mC]*k[5mC]*k[5mC]*kT; antisense) [compound 1076294] : 21

Form field Yap1 mRNA, % UTC, entry 1074794 (k[5mC]*kA*kA*dA*dT*d[5mC]*dA*dA*dT*dG*dT*dG*d[5mC]*kT*k[5mC]*k[5mC]; antisense) [compound 1074794] : 10

Form field Yap1 mRNA, % UTC, entry 1075242 (k[5mC]*kA*kG*dG*dG*dA*dT*dA*dA*dT*dT*dA*d[5mC]*kT*kA*kA; antisense) [compound 1075242] : 18

Form field Yap1 mRNA, % UTC, entry 1075233 (kG*kT*kA*dA*dT*dT*dT*dA*dT*d[5mC]*dA*dG*d[5mC]*k[5mC]*kA*kT; antisense) [compound 1075233] : 5

Form field Yap1 mRNA, % UTC, entry 1074251 (antisense kT*k[5mC]*kT*dG*dA*dT*d[5mC]*dG*dA*dT*dG*dT*dG*kA*kT*kT) [compound 1074251] : 16

Form field Yap1 mRNA, % UTC, entry 1074628 (DNA kG*k[5mC]*k[5mC]*dT*dG*dT*dT*dA*dT*dG*dA*dA*d[5mC]*k[5mC]*k[5mC]*kT) [compound 1074628] : 7

Form field Yap1 mRNA, % UTC, entry 1076427 (k[5mC]*kA*kA*dA*dT*dT*dT*dA*d[5mC]*dT*dG*dA*dT*k[5mC]*kT*k[5mC]; antisense) [compound 1076427] : 9

Form field Yap1 mRNA, % UTC, entry 1074250 (antisense k[5mC]*kT*kG*dA*dT*d[5mC]*dG*dA*dT*dG*dT*dG*dA*kT*kT*kT) [compound 1074250] : 15
